Molecular target: IκB-α kinase
Experiment: IκB-α kinase inhibition, in vitro kinase assay
metric-name: IC50 (nM)
Your answer should be a plain number; it is taken to be in nM.

Would you please look over these solved cases?
> print(dat)
                            compound.smiles  unit.info  meas.value
1  CC[C@H](CO)Nc1nc(NCc2cc(O)c(OC)cc2O)c2[nH]nc(C(C)C)c2n1         nM           6
2  CC(C)c1n[nH]c2c(N(C)Cc3ccc(O)c(O)c3)nc(N[C@@H](CO)C(C)C)nc12         nM         110
3  CC(C)c1n[nH]c2c(NCc3ccc(Cl)c(N)c3)nc(N[C@@H](CO)C(C)C)nc12         nM           3

Per the records, this molecule ( `Cc1n[nH]c2c(NCc3ccc(Cl)c(N)c3N)nc(NCCO)nc12` ) has IC50 equal to 700

Per the records, this molecule ( `CC(C)c1n[nH]c2c(NCc3ccc(Cl)c(O)c3O)nc(N[C@@H](CO)C(C)C)nc12` ) has IC50 equal to 1

---

Biological target: IκB-α kinase
Experiment: IκB-α kinase inhibition, in vitro kinase assay
Param label: returns Condition met when IC50 < 80 nM, returns Condition not met otherwise, including exact equality.

Decide: IC50 of `CC(=O)Oc1cccc(CNc2nc(N[C@@H](CO)C(C)C)nc3c(C(C)C)n[nH]c23)c1` strictly below 80 nM? Condition met

---

Target: cdk1/cyclin B (CDC2) (Homo sapiens, UniProt P06493)
Sequence (P06493 whole entry, species assumed): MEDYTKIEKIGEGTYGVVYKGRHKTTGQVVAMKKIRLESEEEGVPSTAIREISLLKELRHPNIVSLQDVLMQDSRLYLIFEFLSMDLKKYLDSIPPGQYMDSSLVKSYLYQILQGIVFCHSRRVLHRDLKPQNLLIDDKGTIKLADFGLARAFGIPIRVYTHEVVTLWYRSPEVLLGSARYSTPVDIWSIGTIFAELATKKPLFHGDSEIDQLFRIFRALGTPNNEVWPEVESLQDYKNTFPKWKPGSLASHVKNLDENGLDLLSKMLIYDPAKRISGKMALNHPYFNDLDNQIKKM
Sequence (P14635 whole entry partner, species assumed): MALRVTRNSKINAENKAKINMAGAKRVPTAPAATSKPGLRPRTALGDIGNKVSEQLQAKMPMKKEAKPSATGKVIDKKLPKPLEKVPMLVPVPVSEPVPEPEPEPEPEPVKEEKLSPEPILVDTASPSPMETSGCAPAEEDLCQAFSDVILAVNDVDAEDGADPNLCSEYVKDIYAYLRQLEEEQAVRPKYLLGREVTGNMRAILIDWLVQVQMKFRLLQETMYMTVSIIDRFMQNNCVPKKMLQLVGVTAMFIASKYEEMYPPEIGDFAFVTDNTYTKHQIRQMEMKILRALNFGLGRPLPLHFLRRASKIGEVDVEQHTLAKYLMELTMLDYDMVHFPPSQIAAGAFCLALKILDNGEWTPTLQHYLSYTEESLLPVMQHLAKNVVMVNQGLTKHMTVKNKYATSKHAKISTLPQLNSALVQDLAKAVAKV
Assay: CDK inhibition assay, cdk1/cyclin B (CDC2) kinase, histone phosphorylation
Type: biochemical
Attribute: pIC50
A value of pIC50 is the negative decimal logarithm of a concentration given in moles per litre.

pIC50 for cdk1/cyclin B (CDC2) (Homo sapiens, UniProt P06493) with input `Cc1cccc(CNc2nc(NCCO)nc3c(C)n[nH]c23)c1O` equals 8.00

pIC50 for cdk1/cyclin B (CDC2) (Homo sapiens, UniProt P06493) with input `CC[C@H](CO)Nc1nc(NCc2c(N)cccc2Cl)c2[nH]nc(C(C)C)c2n1` equals 7.92

pIC50 for cdk1/cyclin B (CDC2) (Homo sapiens, UniProt P06493) with input Cc1n[nH]c2c(NCc3ccccc3)nc(NC3CCCCC3N)nc12 (stereo not shown) equals 7.52

pIC50 for cdk1/cyclin B (CDC2) (Homo sapiens, UniProt P06493) with input `CC(C)c1n[nH]c2c(Nc3ccccc3)nc(N[C@@H](CO)C(C)C)nc12` equals 9.00

pIC50 for cdk1/cyclin B (CDC2) (Homo sapiens, UniProt P06493) with input `CC(C)c1n[nH]c2c(NCc3ccccc3)nc(N[C@@H](CO)C(C)C)nc12` equals 8.40

pIC50 for cdk1/cyclin B (CDC2) (Homo sapiens, UniProt P06493) with input `CC(C)c1n[nH]c2c(Nc3cccc(Cl)c3)nc(NCCO)nc12` equals 6.96

pIC50 for cdk1/cyclin B (CDC2) (Homo sapiens, UniProt P06493) with input `Cc1n[nH]c2c(NCc3cccc(O)c3)nc(NCCO)nc12` equals 7.10

pIC50 for cdk1/cyclin B (CDC2) (Homo sapiens, UniProt P06493) with input `CC(C)c1n[nH]c2c(NCc3ccccc3)nc(NCCCO)nc12` equals 6.70

---

Target: IκB-α kinase
Assay: IκB-α kinase inhibition, in vitro kinase assay
Attribute: pIC50
A value of pIC50 is the negative decimal logarithm of a concentration given in moles per litre.

Would you please look over these solved cases?
> print(dat)
                                   compound  metric.name  meas.value
1  CC[C@H](CO)Nc1nc(NC(CO)c2ccccc2)c2[nH]nc(C(C)C)c2n1 (mixture of isomers)        pIC50        6.68
2  CC[C@H](CO)Nc1nc(NCc2cccc(Cl)c2O)c2[nH]nc(C(C)C)c2n1        pIC50        7.92

pIC50 for IκB-α kinase with input CC(C)c1n[nH]c2c(NCc3ccccc3)nc(NC3CCCCC3N)nc12 (centres unmarked) equals 7.70

pIC50 for IκB-α kinase with input `Cc1n[nH]c2c(N(C)Cc3ccc(O)c(O)c3)nc(NCCO)nc12` equals 6.05

pIC50 for IκB-α kinase with input `CC(C)c1n[nH]c2c(NCc3ccccc3O)nc(N[C@@H](CO)C(C)C)nc12` equals 9.00

pIC50 for IκB-α kinase with input `Cc1n[nH]c2c(Nc3ccc(O)c(C(=O)O)c3)nc(NCCO)nc12` equals 7.30

pIC50 for IκB-α kinase with input `Cc1n[nH]c2c(Nc3cccc(Cl)c3)nc(NCCO)nc12` equals 7.05

pIC50 for IκB-α kinase with input `Cc1n[nH]c2c(NCc3ccc(Cl)c(N)c3)nc(NCCO)nc12` equals 6.10

pIC50 for IκB-α kinase with input `CC[C@H](CO)Nc1nc(NCc2ccc(O)c(O)c2)c2[nH]nc(C(C)C)c2n1` equals 5.96

pIC50 for IκB-α kinase with input `CC(C)c1n[nH]c2c(Nc3cccc(Cl)c3)nc(NCCCN)nc12` equals 7.10

pIC50 for IκB-α kinase with input `COc1cccc(CNc2nc(NCCO)nc3c(C)n[nH]c23)c1O` equals 7.40

---

Target: cdk1/cyclin B (CDC2) (Homo sapiens)
Assay: CDK inhibition assay, cdk1/cyclin B (CDC2) kinase, histone phosphorylation
Format: biochemical
Param label: returns YES when IC50 < 3 nM, returns NO otherwise, including exact equality.

Answered cases to consult:
> print(dat)
                                   compound  classification
1  COc1cc(O)c(CNc2nc(N[C@@H](CO)C(C)C)nc3c(C(C)C)n[nH]c23)cc1O             YES
2  CC(C)c1n[nH]c2c(NCc3ccc(Cl)c(N)c3N)nc(N[C@@H](CO)C(C)C)nc12              NO
3  CC(C)c1n[nH]c2c(NCc3ccccc3)nc(NC3CCCCC3N)nc12 (centres unmarked)              NO

Please find the next compound below.
Decide: IC50 of `CC(C)c1n[nH]c2c(Nc3ccc(Cl)cc3)nc(N[C@@H](CO)C(C)C)nc12` strictly below 3 nM? YES
